Measured MIC50, listed per entry for reference.
Tested on: Anaerocolumna aminovalerica
Assay: Antibacterial activity against Clostridium aminovalericum isolated from patient with diabetic foot infection after 44 to 48 hrs by agar dilution method
Type: functional
reported metric: MIC50 (µg/mL)

INSERT INTO results (molecule, reported_metric, value_measured) VALUES
  ('C[C@@H](O)[C@H]1C(=O)N2C(C(=O)O)=C(S[C@@H]3CN[C@H](CNS(N)(=O)=O)C3)[C@H](C)[C@H]12 [DORIPENEM]', 'MIC50', 0.06),
  ('Cc1ncc([N+](=O)[O-])n1CCO [METRONIDAZOLE]', 'MIC50', 0.125),
  ('C[C@@H](O)[C@H]1C(=O)N2C(C(=O)O)=C(S[C@@H]3CN[C@H](C(=O)N(C)C)C3)[C@H](C)[C@H]12 [MEROPENEM]', 'MIC50', 0.06),
  ('CCC[C@@H]1C[C@@H](C(=O)N[C@@H]([C@H]2O[C@H](SC)[C@H](O)[C@@H](O)[C@H]2O)[C@H](C)Cl)N(C)C1 [CLINDAMYCIN]', 'MIC50', 0.5),
  ('C[C@@H](O)[C@H]1C(=O)N2C(C(=O)O)=C(S[C@@H]3CN[C@H](C(=O)Nc4cccc(C(=O)O)c4)C3)[C@H](C)[C@H]12 [ERTAPENEM]', 'MIC50', 0.25),
  ('C[C@@H](O)[C@H]1C(=O)N2C(C(=O)O)=C(SCCNC=N)C[C@H]12 [IMIPENEM ANHYDROUS]', 'MIC50', 0.25);

====

Tested on: Cutibacterium acnes
Experiment: Antibacterial activity against Propionibacterium acnes isolated from patient with diabetic foot infection after 44 to 48 hrs by agar dilution method
Format: functional
Measured MIC50, listed per entry for reference.
reported metric: MIC50

INSERT INTO measurements (compound, value_measured) VALUES
  ('Cc1ncc([N+](=O)[O-])n1CCO', '> 32 µg/mL'),
  ('C[C@@H](O)[C@H]1C(=O)N2C(C(=O)O)=C(S[C@@H]3CN[C@H](C(=O)Nc4cccc(C(=O)O)c4)C3)[C@H](C)[C@H]12', '0.125 µg/mL'),
  ('C[C@@H](O)[C@H]1C(=O)N2C(C(=O)O)=C(S[C@@H]3CN[C@H](CNS(N)(=O)=O)C3)[C@H](C)[C@H]12', '0.06 µg/mL'),
  ('CCC[C@@H]1C[C@@H](C(=O)N[C@@H]([C@H]2O[C@H](SC)[C@H](O)[C@@H](O)[C@H]2O)[C@H](C)Cl)N(C)C1', '≤ 0.03 µg/mL'),
  ('C[C@@H](O)[C@H]1C(=O)N2C(C(=O)O)=C(SCCNC=N)C[C@H]12 [IMIPENEM ANHYDROUS]', '≤ 0.015 µg/mL'),
  ('C[C@@H](O)[C@H]1C(=O)N2C(C(=O)O)=C(S[C@@H]3CN[C@H](C(=O)N(C)C)C3)[C@H](C)[C@H]12', '0.125 µg/mL');

====

System: Peptoniphilus asaccharolyticus
Experiment: Antibacterial activity against Peptoniphilus asaccharolyticus isolated from patient with diabetic foot infection after 44 to 48 hrs by agar dilution method
Type: functional
reported metric: MIC90 (µg/mL)

INSERT INTO measurements (compound, tested_system, reported_metric, readout_unit, inequality_sign, value_measured) VALUES
  ('C[C@@H](O)[C@H]1C(=O)N2C(C(=O)O)=C(S[C@@H]3CN[C@H](C(=O)Nc4cccc(C(=O)O)c4)C3)[C@H](C)[C@H]12 [ERTAPENEM]', 'Peptoniphilus asaccharolyticus', 'MIC90', 'µg/mL', '=', 0.25),
  ('CCC[C@@H]1C[C@@H](C(=O)N[C@@H]([C@H]2O[C@H](SC)[C@H](O)[C@@H](O)[C@H]2O)[C@H](C)Cl)N(C)C1 [CLINDAMYCIN]', 'Peptoniphilus asaccharolyticus', 'MIC90', 'µg/mL', '>', 64),
  ('Cc1ncc([N+](=O)[O-])n1CCO [METRONIDAZOLE]', 'Peptoniphilus asaccharolyticus', 'MIC90', 'µg/mL', '=', 2),
  ('C[C@@H](O)[C@H]1C(=O)N2C(C(=O)O)=C(SCCNC=N)C[C@H]12 [IMIPENEM ANHYDROUS]', 'Peptoniphilus asaccharolyticus', 'MIC90', 'µg/mL', '=', 0.03),
  ('C[C@@H](O)[C@H]1C(=O)N2C(C(=O)O)=C(S[C@@H]3CN[C@H](C(=O)N(C)C)C3)[C@H](C)[C@H]12 [MEROPENEM]', 'Peptoniphilus asaccharolyticus', 'MIC90', 'µg/mL', '=', 0.125),
  ('C[C@@H](O)[C@H]1C(=O)N2C(C(=O)O)=C(S[C@@H]3CN[C@H](CNS(N)(=O)=O)C3)[C@H](C)[C@H]12 [DORIPENEM]', 'Peptoniphilus asaccharolyticus', 'MIC90', 'µg/mL', '=', 0.06);
